These measurements were taken from paper PMC9182007.

# PROTOCOL SUMMARY: HPLC on immobilized artificial membrane column (HPLCIAM)
# Type: physicochemical
# CONDITION: Table S5, IAM column, pH 7.4
PARAMETER MEASURED: log k IAM
Reply: number alone, nothing else.

Some compounds with recorded log k IAM:
COMPOUND	log k IAM
C[C@H](CS)C(=O)N1CCC[C@H]1C(=O)O	-2.19
C[C@]12C=CC(=O)C=C1CC[C@@H]1[C@@H]2[C@@H](O)C[C@@]2(C)[C@H]1CC[C@]2(O)C(=O)CO	0.45
CN(C)CCc1c[nH]c2ccc(C[C@H]3COC(=O)N3)cc12	0.52
CN1CCC(=C2c3ccccc3CC(=O)c3sccc32)CC1	1.34

## Input Report measured log k IAM; entry is Cc1cc2c(s1)Nc1ccccc1N=C2N1CCN(C)CC1
## Output 1.31

## Input Report measured log k IAM; entry is COC(=O)[C@@H]1CC2=CC(=O)CC[C@]2(C)[C@@]23O[C@@H]2C[C@@]2(C)[C@@H](CC[C@@]24CCC(=O)O4)[C@H]13
## Output 0.19

## Input Report measured log k IAM; entry is CC(CN1c2ccccc2Sc2ccccc21)N(C)C (centres unmarked)
## Output 1.17

## Input Report measured log k IAM; entry is CCOCCn1c(C2CCN(CCc3ccc(C(C)(C)C(=O)O)cc3)CC2)nc2ccccc21
## Output -0.26

## Input Report measured log k IAM; entry is CCOC(=O)[C@H](CCc1ccccc1)N[C@@H](C)C(=O)N1CCC[C@H]1C(=O)O
## Output -1.29

## Input Report measured log k IAM; entry is Cn1c(=O)c2c(ncn2C)n(C)c1=O
## Output -0.75

## Input Report measured log k IAM; entry is COc1cc2nc(N3CCN(C(=O)C4COc5ccccc5O4)CC3)nc(N)c2cc1OC (centres unmarked)
## Output -0.66

## Input Report measured log k IAM; entry is CN(C)CCc1c[nH]c2ccc(Cn3cncn3)cc12
## Output 0.40

## Input Report measured log k IAM; entry is CN(C)CCOC(c1ccccc1)c1ccccc1 [diphenhydramin]
## Output 0.56

## Input Report measured log k IAM; entry is CO/N=C(\C(=O)N[C@@H]1C(=O)N2C(C(=O)O)=C(COC(N)=O)CS[C@H]12)c1ccco1
## Output 0.23

## Input Report measured log k IAM; entry is CCN(Cc1ccncc1)C(=O)C(CO)c1ccccc1 (centres unmarked)
## Output 0.03

* * *

# TARGET: human serum albumin (HSA) (Homo sapiens, UniProt P02768)
# Sequence (P02768 25-609): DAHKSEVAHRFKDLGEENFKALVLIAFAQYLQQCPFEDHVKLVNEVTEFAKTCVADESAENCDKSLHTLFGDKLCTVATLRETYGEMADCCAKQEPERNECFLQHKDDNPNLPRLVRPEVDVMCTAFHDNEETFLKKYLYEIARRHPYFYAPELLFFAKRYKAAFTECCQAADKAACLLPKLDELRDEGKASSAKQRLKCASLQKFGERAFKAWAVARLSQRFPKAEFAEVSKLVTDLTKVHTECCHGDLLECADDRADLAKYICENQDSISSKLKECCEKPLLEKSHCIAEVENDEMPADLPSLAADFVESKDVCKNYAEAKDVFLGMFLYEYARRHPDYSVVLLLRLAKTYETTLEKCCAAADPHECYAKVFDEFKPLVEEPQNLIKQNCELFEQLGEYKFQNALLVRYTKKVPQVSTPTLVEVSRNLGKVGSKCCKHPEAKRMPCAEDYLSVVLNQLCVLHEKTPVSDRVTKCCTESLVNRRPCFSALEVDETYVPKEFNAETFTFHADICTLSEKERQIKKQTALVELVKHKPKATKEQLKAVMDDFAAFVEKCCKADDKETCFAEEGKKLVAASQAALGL
# PROTOCOL SUMMARY: in vitro
# CONDITION: immobilized hsa column, pH 7.4
Listing of entries alongside the reported chromatographic logD.
Reply: number alone, nothing else.

Some compounds with recorded chromatographic logD:
COMPOUND	chromatographic logD
CN1C(=O)CC(=O)N(c2ccccc2)c2cc(Cl)ccc21	0
CCOC(=O)[C@H](CCc1ccccc1)N[C@@H](C)C(=O)N1CCC[C@H]1C(=O)O	-0.47
Cc1nc2n(c(=O)c1CCN1CCC(c3noc4cc(F)ccc34)CC1)CCCC2	0.32

## Input Provide chromatographic logD, recorded with human serum albumin (HSA) (Homo sapiens, UniProt P02768), of O=C(O)C1N=C(c2ccccc2)c2cc(Cl)ccc2NC1=O (stereo not drawn) [clorazepate]
## Output 0.6

## Input Provide chromatographic logD, recorded with human serum albumin (HSA) (Homo sapiens, UniProt P02768), of CN1CCC(=C2c3ccccc3CC(=O)c3sccc32)CC1
## Output 0.77

## Input Provide chromatographic logD, recorded with human serum albumin (HSA) (Homo sapiens, UniProt P02768), of CN1C(C(=O)Nc2ccccn2)=C(O)c2ccccc2S1(=O)=O
## Output 1.52
